target.of.assay: T1, endogenous cell surface human MSLN (human, UniProt Q13421 296-598)
T1 construct: whole, on cells; The cell line is named under assay; also called cell-surface MSLN on NCI-H226, OVCAR-3 and AsPC-1 cells
assay.method.text: flow cytometry, NCI-H226 cells + 20 nM soluble MSLN
measurement.label: pEC50
// pEC50 is dimensionless: -log10 of concentration (M)

Would you please look over these solved cases?
FS22-172-003-AA/FS28-256-021 (bispecific antibody, human IgG1, kappa, L234A L235A, V domains shown, IgG1 mAb^2 with LALA) VH: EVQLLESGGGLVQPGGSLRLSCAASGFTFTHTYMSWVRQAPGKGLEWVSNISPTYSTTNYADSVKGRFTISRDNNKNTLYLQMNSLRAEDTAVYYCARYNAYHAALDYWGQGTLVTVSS VL: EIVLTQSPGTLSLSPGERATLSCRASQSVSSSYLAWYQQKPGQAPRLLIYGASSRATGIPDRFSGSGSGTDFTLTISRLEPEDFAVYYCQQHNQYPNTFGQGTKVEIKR = 8.02
FS22-172-003-AA/FS28-256-027 (bispecific antibody, human IgG1, kappa, L234A L235A, V domains shown, IgG1 mAb^2 with LALA) VH: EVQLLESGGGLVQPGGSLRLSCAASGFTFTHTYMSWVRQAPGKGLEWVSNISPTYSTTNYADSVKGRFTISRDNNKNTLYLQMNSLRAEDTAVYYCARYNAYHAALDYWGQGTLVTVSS VL: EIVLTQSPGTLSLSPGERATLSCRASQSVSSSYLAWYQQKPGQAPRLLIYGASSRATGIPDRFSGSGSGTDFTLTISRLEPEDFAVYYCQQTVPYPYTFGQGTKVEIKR = 8.64
FS22-172-003-AA/FS28-256-014 (bispecific antibody, human IgG1, kappa, L234A L235A, V domains shown, IgG1 mAb^2 with LALA) VH: EVQLLESGGGLVQPGGSLRLSCAASGFTFTDTYMSWVRQAPGKGLEWVSNISPTYSTTNYADSVKGRFTISRDNSKNTLYLQMNSLRAEDTAVYYCARYNAYAAGLDYWGQGTLVTVSS VL: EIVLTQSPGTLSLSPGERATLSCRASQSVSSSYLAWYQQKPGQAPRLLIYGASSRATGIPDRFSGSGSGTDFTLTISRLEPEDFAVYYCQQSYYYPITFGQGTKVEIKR = 8.96
FS22-172-003-AA/FS28-185 (bispecific antibody, human IgG1, kappa, L234A L235A, V domains shown, IgG1 mAb^2 with LALA; also called FS28-185 in CD137 mAb^2 format) VH: EVQLLESGGGLVQPGGSLRLSCAASGFTFTTSAMSWVRQAPGKGLEWVSRINPYEGETNYADSVKGRFTISRDNSKNTLYLQMNSLRAEDTAVYYCARGWSIATYYKSAMDYWGQGTLVTVSS VL: EIVLTQSPGTLSLSPGERATLSCRASQSVSSSYLAWYQQKPGQAPRLLIYGASSRATGIPDRFSGSGSGTDFTLTISRLEPEDFAVYYCQQSSYSAPVTFGQGTKVEIKR = 7.55

Task: Given FS22-172-003-AA/FS28-024-051 (bispecific antibody, human IgG1, kappa, L234A L235A, V domains shown, IgG1 mAb^2 with LALA) VH: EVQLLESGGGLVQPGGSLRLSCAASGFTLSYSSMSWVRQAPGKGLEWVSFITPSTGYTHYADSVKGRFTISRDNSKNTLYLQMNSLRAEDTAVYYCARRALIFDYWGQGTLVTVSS VL: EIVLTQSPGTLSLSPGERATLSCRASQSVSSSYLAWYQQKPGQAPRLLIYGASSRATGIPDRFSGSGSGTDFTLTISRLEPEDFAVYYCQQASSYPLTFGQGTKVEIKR , respond with its pEC50.
Output: 8.51
